test target: MAGL (Mus musculus, UniProt O35678)
Construct: Proteomes (mouse brain membrane fraction or cell lysates); from tissue; host or cells: mouse brain membrane fraction (or cell lysates, not specified)
Sequence (O35678 whole entry): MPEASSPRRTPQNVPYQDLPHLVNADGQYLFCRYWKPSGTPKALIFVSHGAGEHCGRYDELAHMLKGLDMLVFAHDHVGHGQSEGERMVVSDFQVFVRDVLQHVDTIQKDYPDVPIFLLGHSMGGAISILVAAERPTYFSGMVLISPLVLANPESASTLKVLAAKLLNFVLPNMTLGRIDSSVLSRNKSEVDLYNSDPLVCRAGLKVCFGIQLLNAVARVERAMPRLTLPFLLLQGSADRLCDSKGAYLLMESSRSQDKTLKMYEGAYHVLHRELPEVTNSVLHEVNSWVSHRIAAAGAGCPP
assay explanation: In vitro competitive activity-based protein profiling (gel-based, FP-Rh or HT-01 probe)
Format: biochemical
condition description: 1 μM inhibitor
Each item that follows carries a reported inhibition at 1 µM.

// below: answered compounds
## Task For the compound shown here, CC(C)(C)OC(=O)N1CCN(C(=O)n2cc(C#N)cn2)CC1 , give the reported inhibition at 1 µM.
## Result > 75%

## Task For the compound shown here, N#Cc1cnn(C(=O)N2CCCN(C(=O)c3ccccc3)CC2)c1 , give the reported inhibition at 1 µM.
## Result > 75%

Next up:
## Task For the compound shown here, CN1CCN(C(=O)n2cc(C(F)(F)F)cn2)CC1 , give the reported inhibition at 1 µM.
## Result < 25%
